pIC50: −log10 of the molar value.
Collected set of pIC50 measured with UniProt P03951 across studies.
Values of pIC50 greater than or equal to 8 map to Fulfilled; values below map to Not fulfilled.

# count of solved cases: 4
# MOLECULE, QUALITATIVE LABEL
data = [
    ("CCC(c1ccc(F)c(Cl)c1)c1nnc(C(=O)N2CCC[C@@]3(C2)OC(=O)Nc2ccc(Cl)c(F)c23)[nH]1 (single isomer, unassigned)", "Not fulfilled"),
    ("COc1cn([C@@H](C[C@@H]2CCCCO2)C(=O)Nc2ccc(C(=O)O)cc2)c(=O)cc1-c1cc(Cl)ccc1OCC(F)(F)F (single isomer, unassigned)", "Fulfilled"),
    ("O=C(Nc1cnn(Cc2cnc(N3CCC3)nc2C(F)F)c1)c1cncc(-c2c(C(F)F)ccc(Cl)c2F)n1", "Not fulfilled"),
    ("Nc1c(C(=O)N2CCC[C@@]3(C2)OC(=O)Nc2ccc(Cl)c(F)c23)cnn1-c1cccc(Cl)c1", "Not fulfilled"),
]

Please look at the following molecule next.
Req: Form field: pIC50 at least 8? Entry: O=C(Nc1ccc(-n2nccn2)cc1)[C@@H]1CCC2CC(c3c(-n4cnnn4)ccc(Cl)c3F)=CC(=O)N21 (mixture of isomers)
Resp: Not fulfilled

---

Listing of IC50 toward Coagulation factor XI (Homo sapiens), each taken from a published source.
Just the number in nM, nothing appended.

For orientation, consider the following solved cases.
# COMPOUND, IC50 [nM]
rows = [
    ("COC(=O)Nc1ccc(-c2c[nH]c(C(Cc3ccccc3)c3ccc(-c4c(F)ccc(Cl)c4F)c[n+]3[O-])n2)cc1 (single isomer, unassigned)", 289),
    ("O=C(Nc1cnn(C2(c3cnc(N4CCC4)nc3)CC2)c1)c1cncc(-c2c(C(F)F)ccc(Cl)c2F)n1", 973),
    ("N#Cc1ccc(Cl)cc1-c1cc(=O)n(C(Cc2cnco2)C(=O)Nc2ccc3nccn3c2)cc1Cl (racemic)", 96),
]

Now examine the next entry.
Req: Any idea what its IC50 is? The compound is C[C@H]1C[C@@H]1C[C@@H](C(=O)Nc1ccc(C(=O)O)cc1)c1ccc(-c2c(OC(F)F)ccc(Cl)c2F)c[n+]1[O-] (single isomer, unassigned)
Resp: 0.38

---

# IC50 against Coagulation factor XI (Homo sapiens), merged from multiple literature sources
Each record is given 1 if its reported IC50 is strictly below 400 nM. Records at or above 400 nM are given -1.

# COMPOUND, QUALITATIVE LABEL
records = [
    ("CCC(c1ccnc(C(F)(F)F)c1)c1c[nH]c(C(=O)N2CCC[C@@]3(C2)OC(=O)Nc2ccc(Cl)c(F)c23)n1 (single isomer, unassigned)", -1),
    ("O=C(Nc1ccc2c(c1)C(F)(F)C(=O)N2)[C@@H]1CC[C@@H]2CC(c3c(-n4cnnn4)ccc(Cl)c3F)=CC(=O)N21", 1),
    ("COc1cccc(Cn2ncc(C(=O)N3CCC[C@@]4(C3)OC(=O)Nc3ccc(Cl)c(F)c34)c2N)c1", 1),
    ("CC[C@@H](NC(=O)N1C(=O)[C@H](Cc2ccnc(N)c2)[C@H]1C(=O)N(C)c1ncccn1)c1cccnc1", 1),
    ("Nc1cc(-c2ccccc2F)nn1CC(=O)N1CC[C@@]2(C1)OC(=O)Nc1ccc(Cl)c(F)c12", 1),
]

# next compound below
Req: Say whether its IC50 is strictly beneath 400 nM. Entry: C[C@@H](NC(=O)N1C(=O)[C@H](Cc2ccnc(N)c2)[C@H]1C(=O)O)C1CCCCC1
Resp: 1
